# Selectivity ratio per entry
biological target: Opioid receptors; mu & delta (Rattus norvegicus) (UniProt P33533+P33535); test: Selectivity ratio of binding affinity towards mu to delta receptors of rat brain membranes; format: cell membranes; details: Membrane
Sequence (P33533 whole entry, looked up): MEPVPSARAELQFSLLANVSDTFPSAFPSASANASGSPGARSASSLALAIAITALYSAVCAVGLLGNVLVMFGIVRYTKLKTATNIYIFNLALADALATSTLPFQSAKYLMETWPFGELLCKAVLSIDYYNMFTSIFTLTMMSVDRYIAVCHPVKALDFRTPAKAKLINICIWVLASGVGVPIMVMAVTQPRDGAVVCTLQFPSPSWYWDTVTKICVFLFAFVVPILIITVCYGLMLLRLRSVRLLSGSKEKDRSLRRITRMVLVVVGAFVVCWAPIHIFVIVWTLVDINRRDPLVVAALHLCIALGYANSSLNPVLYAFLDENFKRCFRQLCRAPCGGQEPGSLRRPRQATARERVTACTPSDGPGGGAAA
Sequence (P33535 whole entry, looked up): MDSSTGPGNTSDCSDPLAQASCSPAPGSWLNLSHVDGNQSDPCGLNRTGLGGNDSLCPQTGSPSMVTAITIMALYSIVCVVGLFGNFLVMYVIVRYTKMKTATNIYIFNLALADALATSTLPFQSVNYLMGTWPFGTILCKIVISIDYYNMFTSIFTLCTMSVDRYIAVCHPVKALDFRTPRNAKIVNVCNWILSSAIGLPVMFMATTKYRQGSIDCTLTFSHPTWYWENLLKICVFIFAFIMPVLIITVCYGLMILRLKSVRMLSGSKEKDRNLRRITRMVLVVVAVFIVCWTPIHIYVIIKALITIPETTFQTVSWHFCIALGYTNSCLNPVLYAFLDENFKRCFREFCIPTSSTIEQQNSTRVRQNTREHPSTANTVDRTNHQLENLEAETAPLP

Compound | Selectivity ratio
Cc1cc(-c2ccccc2)c2c(n1)C1Oc3c(O)ccc4c3[C@@]13CCN(CC1CC1)[C@H](C4)[C@]3(O)C2 (stereo not given in full) | 1.2
Cc1ncc2c(n1)[C@@H]1Oc3c(O)ccc4c3[C@@]13CCN(CC1CC1)[C@H](C4)[C@]3(O)C2 | 0.3
Oc1ccc2c3c1O[C@H]1c4nc(-c5ccccc5)cc(-c5ccccc5)c4C[C@@]4(O)[C@@H](C2)N(CC2CC2)CC[C@]314 | 7.6
Oc1ccc2c3c1O[C@H]1c4nc(-c5ccccc5)nc(-c5ccccc5)c4C[C@@]4(O)[C@@H](C2)N(CC2CC2)CC[C@]314 | 3.4
Oc1ccc2c3c1O[C@H]1c4nc(-c5ccccc5)ncc4C[C@@]4(O)[C@@H](C2)N(CC2CC2)CC[C@]314 | 1.4
Oc1ccc2c3c1O[C@H]1c4ncncc4C[C@@]4(O)[C@@H](C2)N(CC2CC2)CC[C@]314 | 1.2
Oc1ccc2c3c1O[C@H]1c4ncccc4C[C@@]4(O)[C@@H](C2)N(CC2CC2)CC[C@]314 | 1.9
Oc1ccc2c3c1O[C@H]1c4ncc(-c5ccccc5)cc4C[C@@]4(O)[C@@H](C2)N(CC2CC2)CC[C@]314 | 16
Cc1nc(-c2ccccc2)c2c(n1)C1Oc3c(O)ccc4c3[C@@]13CCN(CC1CC1)[C@H](C4)[C@]3(O)C2 (stereo not given in full) | 0.8

// next item, Selectivity ratio requested
Exam item: GET Selectivity ratio where system = Opioid receptors; mu & delta (Rattus norvegicus) (UniProt P33533+P33535) and item = Oc1ccc2c3c1OC1c4nccc(-c5ccccc5)c4C[C@@]4(O)[C@@H](C2)N(CC2CC2)CC[C@]314 (stereo not given in full)
Marked response: 2.6
